# Method Description: small molecules captured by biotinylated probe aFGF2 – biochemical, small-molecule microarray, fluorescence 635/667, stem cell growth factor project, primary screen (AID 1067);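 also: measures binding of biotinylated aFGF2 protein to printed compounds on slides; z-score merges feature fluorescence and signal-to-noise across triplicate slides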
# Conditions: higher = more signal
Where composite z-score equals or exceeds -0.1, the correct label is TRUE; where it does not, the label is FALSE.

Reference set (8 entries):
Compound	Category
C=CCC(OC(C)=O)[C@@H]1[C@@H](N(Cc2ccc(-c3cccc(C(F)(F)F)c3)o2)C(=O)c2cccc3ccccc23)c2cc(OCCCO)ccc2N1C(=O)c1ccc(-c2ccccc2)cc1 (some centres undefined)	FALSE
COCCOC(=O)N1C(=O)[C@@]2(c3cc(C#CCNC(N)=O)ccc31)[C@H](C(=O)N1CCCCCCC1)[C@H]1C(=O)O[C@H](c3ccccc3)[C@H](c3ccccc3)N1[C@@H]2c1ccc(OCCO)cc1	TRUE
N#Cc1ccc(NN2C(C(O)c3ccccc3)C=CC3C(=O)N(c4ccccc4)C(=O)C32)cc1 (centres undefined)	TRUE
C=CCC(OC(C)=O)[C@@H]1[C@@H](N(Cc2cc3ccccc3o2)C(=O)Cc2ccc(OC)cc2)c2cc(OCCCO)ccc2N1C(=O)c1ccc(-c2ccccc2)cc1 (some centres undefined)	TRUE
O=C1c2ccccc2C(=O)C2CC([C@H]3Oc4ccccc4S(=O)(=O)N4CCC[C@@H]34)=CCC12 (some centres undefined)	FALSE
COC(=O)C(CC#Cc1ccc2c(c1)[C@]1(C(=O)N2)[C@H](C(=O)N2CCc3cc(OC)c(OC)cc3C2)[C@H]2C(=O)O[C@H](c3ccccc3)[C@H](c3ccccc3)N2[C@@H]1c1ccc(OCCO)cc1)C(=O)OC	FALSE
CN1C(=O)C2C=CC(C(O)c3ccc(F)cc3)N(N3CCCCC3)C2C1=O (centres undefined)	TRUE
CN(C)C(=O)[C@]1(Cc2ccccc2N=[N+]=[N-])N=C(c2ccc(OCCCO)cc2)O[C@@H]1c1ccccc1CN=[N+]=[N-]	TRUE

Exam item: Is it the case that C=C(/C(=C/C[C@@H](OC(=O)c1ccncc1)c1ccccc1OCCO)c1cnc2ccccc2c1)C(C)C has composite z-score reaching or exceeding -0.1?
Marked response: TRUE

Exam item: Continue with CCN(CC)c1ccc(N2CC=CC34O[C@@H]5/C=C\CCCOC(=O)C5[C@H]3C(=O)N(CCCCCO)[C@@H]4C2=O)cc1 (some centres undefined)
Marked response: FALSE

Exam item: Continue with CN(C)CCCC[C@@H]1NC(=O)[C@H]2C[C@@H](C(=O)NCCCCCCNC(=O)CS)[C@@H](c3ccc(O)cc3)N2C1=O
Marked response: FALSE

Exam item: Continue with C[N+](C)(C)CCCC[C@@H]1NC(=O)[C@@H]2C[C@H](C(=O)O)[C@H](c3cccc(OCCO)c3)N2C1=O
Marked response: FALSE

Exam item: Continue with CN(C)C(=O)[C@@]1(Cc2ccccc2N=[N+]=[N-])N=C(c2ccc(OCCCO)cc2)O[C@H]1c1ccccc1N=[N+]=[N-]
Marked response: TRUE

Exam item: Continue with COCCOC(=O)N1C(=O)[C@@]2(c3cc(C#CCNC(N)=O)ccc31)[C@H](c1ccc(OCCO)cc1)N1[C@H](c3ccccc3)[C@H](c3ccccc3)OC(=O)[C@H]1[C@@H]2C(=O)N1CCN(c2ncccn2)CC1
Marked response: TRUE

* * *

# Method Description: JC-1 mitochondrial signal, unstimulated MM1S myeloma – cell-based, JC-1 fluorescence, 24 h, 100 nL compound, profiling panel (AID 1170); also: test concentration not given here
# Conditions: MM1S mitochondrial potential, higher = more signal
Readout Kind: z-score
One number for each entry.

Below: 2 molecules and their reported z-score.
Molecule	z-score
O=C1O[C@@H](c2ccccc2)[C@@H](c2ccccc2)N2[C@@H](c3ccc(O)cc3)[C@]3(C(=O)Nc4ccc(C#CC5(O)CCCCCC5)cc43)[C@@H](C(=O)N3CCN(c4ncccn4)CC3)[C@H]12	-0.203
CCCC[C@H]1OB(O)C[C@H]2C1=C(COc1ccccc1)Cn1c(=O)n(-c3ccccc3)c(=O)n12	-0.958

Please supply z-score for each of the following items, keeping them in order.
1. C[N+](C)(C)CCCCNC(=O)[C@H]1C[C@H]2C(=O)NCC(=O)N2[C@H]1c1ccc(O)cc1
2. C[N+](C)(C)CCCCCCNC(=O)[C@@H]1C[C@@H]2C(=O)NCC(=O)N2[C@@H]1c1cccc(OCCO)c1
3. COc1cc(NN2C(C(O)c3ccc(I)cc3)C=CC3C(=O)N(C)C(=O)C32)cc(OC)c1OC (configuration not stated)
4. COc1ccc(CCNC(=O)[C@@H]2c3ccccc3C(=O)N(Cc3ccccc3)[C@H]2c2ccc(CO)cc2)cc1
5. CC(C)CN1C(=O)[C@@]2(Cc3ccccc31)c1ccccc1C(=O)N(Cc1ccccc1)[C@H]2c1ccc(CO)cc1

Marked response:
[-0.988, -1.39, -0.311, -0.502, 1.07]
